biological target: Muscarinic acetylcholine receptor (Rattus norvegicus) (UniProt P08482+P08483+P08485+P08911+P10980); test: Displacement of [3H]NMS from muscarinic receptor in Sprague-Dawley rat brain homogenates assessed as remaining protein bound radioligand levels at 300 pM to 1 uM after 60 mins by liquid scintillation counting method relative to control
readout-label: Activity (%)

Consider the following illustrative entries.
INSERT INTO results (compound, readout_label, recorded_measurement) VALUES
  ('CCCCCCCCCCCCCCCCCC(=O)OC[C@H](COP(=O)(O)OCCOCCOCCOCCOCCOCCOCCOCCOCCOCCOCCOCCNC(=O)CCCCCC(=O)NCCc1ccc(O)c([C@H](CCN(C(C)C)C(C)C)c2ccccc2)c1)OC(=O)CCCCCCCCCCCCCCCCC', 'Activity', 11.2),
  ('Cc1ccc(O)c([C@H](CCN(C(C)C)C(C)C)c2ccccc2)c1', 'Activity', 9),
  ('CCCCCCCCCCCCCCCCCC(=O)OC[C@H](COP(=O)(O)OCCOCCOCCOCCOCCOCCNC(=O)CCCCCC(=O)NCCc1ccc(O)c([C@H](CCN(C(C)C)C(C)C)c2ccccc2)c1)OC(=O)CCCCCCCCCCCCCCCCC', 'Activity', 14.5);

a. CCCCCCCCCCCCCCCCCC(=O)OC[C@H](COP(=O)(O)OCCOCCOCCOCCOCCOCCOCCOCCNC(=O)CCCCCC(=O)NCCc1ccc(O)c([C@H](CCN(C(C)C)C(C)C)c2ccccc2)c1)OC(=O)CCCCCCCCCCCCCCCCC
b. CC(C)N(CC[C@H](c1ccccc1)c1cc(CCNC(=O)CCCCCC(=O)NCCOCCOCCOCCOCCOCCOCCOCCOCCOCCO)ccc1O)C(C)C.Cl
Given the listed records, identify the one among a and b with higher Activity. Returns: label corresponding to the selected item.
b
